experimental-target: T1, Extracellular domain of TIM-3 with Flag and His tag (human)
T1 construct: also called TIM-3-Flag-His
experiment-notes: Biacore SPR; antibody as stationary phase, 'TIM-3-His' as mobile phase
# pKd per entry
// field semantics: pKd = negative decimal log of concentration (mol/L)

binder	pKd
h1701-009NHG (antibody, human IgG4 S228P, kappa, V domains shown, HCDR2 point-mutation variant of h1701-009 (NNG to NHG); IgG4 (S228P)/kappa) VH: QVQLVQSGAEVKKPGASVKVSCKASGYTFTDYYMNWVRQAPGQGLEWMGDIIPNHGGSKYNQKFKDRVTMTTDTSTSTAYMELRSLRSDDTAVYYCATWGYGSSYRWFDYWGQGTLVTVSS VL: DIQMTQSPSSLSASVGDRVTITCLASQPIGIWLAWYQQKPGKAPKLLIYAATSLADGVPSRFSGSGSGTDFTFTISSLQPEDIATYYCQQLYSSPWTFGGGTKVEIKR	9.19
h1701-009NEG (antibody, human IgG4 S228P, kappa, V domains shown, HCDR2 point-mutation variant of h1701-009 (NNG to NEG); IgG4 (S228P)/kappa) VH: QVQLVQSGAEVKKPGASVKVSCKASGYTFTDYYMNWVRQAPGQGLEWMGDIIPNEGGSKYNQKFKDRVTMTTDTSTSTAYMELRSLRSDDTAVYYCATWGYGSSYRWFDYWGQGTLVTVSS VL: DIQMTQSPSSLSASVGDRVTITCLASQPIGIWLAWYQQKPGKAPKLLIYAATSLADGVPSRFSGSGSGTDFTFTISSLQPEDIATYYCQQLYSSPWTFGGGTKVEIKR	9.19
h1701-009NLG (antibody, human IgG4 S228P, kappa, V domains shown, HCDR2 point-mutation variant of h1701-009 (NNG to NLG); IgG4 (S228P)/kappa) VH: QVQLVQSGAEVKKPGASVKVSCKASGYTFTDYYMNWVRQAPGQGLEWMGDIIPNLGGSKYNQKFKDRVTMTTDTSTSTAYMELRSLRSDDTAVYYCATWGYGSSYRWFDYWGQGTLVTVSS VL: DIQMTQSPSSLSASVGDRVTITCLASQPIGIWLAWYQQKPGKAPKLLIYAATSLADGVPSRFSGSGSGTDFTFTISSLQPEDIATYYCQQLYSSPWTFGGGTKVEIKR	9.19

Look at this binder and give its reported pKd. h1701-009NAG (antibody, human IgG4 S228P, kappa, V domains shown, HCDR2 point-mutation variant of h1701-009 (NNG to NAG); IgG4 (S228P)/kappa) VH: QVQLVQSGAEVKKPGASVKVSCKASGYTFTDYYMNWVRQAPGQGLEWMGDIIPNAGGSKYNQKFKDRVTMTTDTSTSTAYMELRSLRSDDTAVYYCATWGYGSSYRWFDYWGQGTLVTVSS VL: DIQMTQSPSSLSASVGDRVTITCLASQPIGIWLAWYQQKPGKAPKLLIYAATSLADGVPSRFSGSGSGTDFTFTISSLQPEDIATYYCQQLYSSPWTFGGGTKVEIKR 9.24

Name the recorded pKd for h1701-009NVG (antibody, human IgG4 S228P, kappa, V domains shown, HCDR2 point-mutation variant of h1701-009 (NNG to NVG); IgG4 (S228P)/kappa) VH: QVQLVQSGAEVKKPGASVKVSCKASGYTFTDYYMNWVRQAPGQGLEWMGDIIPNVGGSKYNQKFKDRVTMTTDTSTSTAYMELRSLRSDDTAVYYCATWGYGSSYRWFDYWGQGTLVTVSS VL: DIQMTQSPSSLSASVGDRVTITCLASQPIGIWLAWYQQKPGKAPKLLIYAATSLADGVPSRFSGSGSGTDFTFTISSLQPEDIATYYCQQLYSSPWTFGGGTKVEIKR . 9.24
